Cooperativity (alpha factor) values for the compounds below.
# assay.target: human M2 receptor (Homo sapiens, UniProt P08172)
# Sequence (P08172 whole entry): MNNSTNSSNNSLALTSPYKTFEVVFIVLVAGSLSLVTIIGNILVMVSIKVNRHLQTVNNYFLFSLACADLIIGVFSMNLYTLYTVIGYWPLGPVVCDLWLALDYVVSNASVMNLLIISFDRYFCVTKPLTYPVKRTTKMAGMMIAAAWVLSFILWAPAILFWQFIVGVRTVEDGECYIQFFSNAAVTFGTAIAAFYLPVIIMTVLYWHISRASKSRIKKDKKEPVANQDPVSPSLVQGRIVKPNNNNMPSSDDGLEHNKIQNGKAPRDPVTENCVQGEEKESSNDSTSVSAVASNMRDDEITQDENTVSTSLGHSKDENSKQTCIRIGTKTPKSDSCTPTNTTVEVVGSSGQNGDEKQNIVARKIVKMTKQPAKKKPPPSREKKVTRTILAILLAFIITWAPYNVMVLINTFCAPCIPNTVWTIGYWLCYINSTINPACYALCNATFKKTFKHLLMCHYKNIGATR
# Type: cell-based
# test.settings: shift in the acetylcholine dose-response curve (Allosteric EC50 shift, GraphPad PRISM); α >1 = positive cooperativity
The answer should be written as a number, with no unit following it.

{"columns": ["compound", "Cooperativity (alpha factor)"],
 "data": [
  ["O=C(NC(c1c(F)cccc1F)C(F)(F)F)c1cn(-c2ccc(F)cc2F)c2nc(N3C[C@@H](O)CC3=O)ccc2c1=O (single isomer, unassigned) [Example 246]", 53],
  ["O=C(NC12CC(C(F)(F)F)(C1)C2)c1cn(-c2c(F)cc(F)cc2F)c2nc(N3C[C@@H](O)[C@H](O)C3)ccc2c1=O", 36],
  ["CC12CCC(NC(=O)c3cn(-c4ccc(F)cc4F)c4nc(N5CC[C@@H](O)C5)ccc4c3=O)(CC1)CC2", 34],
  ["CC[C@@H](NC(=O)c1cn(-c2ccc(F)cc2F)c2nc(N3CC4CNC(=O)C4C3)ccc2c1=O)C(F)(F)F (single isomer, unassigned) [Example 223]", 30]
]}

Given the compound `O=C(NC12CC(C(F)(F)F)(C1)C2)c1cn(-c2c(F)cc(F)cc2F)c2nc(N3C[C@@H](O)CC3=O)ccc2c1=O` , what is its reported Cooperativity (alpha factor)?
34

Try this compound too: `O=C(N[C@H](C1CC1)C(F)(F)F)c1cn(-c2c(F)cc(F)cc2F)c2nc(N3CCNC3=O)ccc2c1=O`
13

One more compound: O=C(NC12CC3CC(CC(C3)C1)C2)c1cn(-c2ccc(F)cc2F)c2nc(N3CC4C(C3)C4(F)F)ccc2c1=O (stereo not shown)
24

Same thing, different compound: `C[C@H](NC(=O)c1cn(-c2c(F)cc(F)cc2F)c2nc(N3C[C@@H](O)CC3=O)ccc2c1=O)C(F)(F)F`
29

Same for CC[C@@H](NC(=O)c1cn(-c2c(F)cc(F)cc2F)c2nc(N3CCC(O)C3=O)ccc2c1=O)C(F)(F)F (single isomer, unassigned) [Example 281]
44

Also `CC(C)(NC(=O)c1cn(-c2ccc(F)cc2F)c2nc(N3CC[C@@H](OC(F)F)C3)ccc2c1=O)c1c(F)cccc1F` , if possible.
9

Quick one: O=C(NC(c1ccccc1Cl)C(F)(F)F)c1cn(-c2ccccc2F)c2nc(N3CCC(O)C3=O)ccc2c1=O (racemic) [Example 287]
24

Another compound to check: `O=C(N[C@@H](C1CC1)C(F)(F)F)c1cn(-c2c(F)cc(F)cc2F)c2nc(N3CCCN(CCO)C3=O)ccc2c1=O`
25

Next compound up: `CC[C@@H](NC(=O)c1cn(-c2ccc(F)cc2F)c2nc(N3C[C@@H](F)C[C@H]3C)ccc2c1=O)C(F)(F)F`
13

* * *

# assay.target: human M2 receptor (Homo sapiens, UniProt P08172)
# test.settings: Receptor activity EC50, M2-GIRK1/4 activation test, acetylcholine at EC20; allosteric potency; in some cases mean values from two or more determinations
readout.label: pEC50
// returns pEC50 (minus log10 of molar concentration), number only

Guide cases for pEC50, answers given:
{"columns": ["compound", "pEC50"],
 "data": [
  ["CCC12CC3CC(C1)CC(NC(=O)c1cn(-c4ccc(F)cc4Cl)c4nc(N(C)C)ccc4c1=O)(C3)C2", 7.17],
  ["CC(C)CC(NC(=O)c1cn(-c2ccc(F)cc2F)c2nc(N(C)C)ccc2c1=O)C(F)(F)F (racemic)", 7.52],
  ["O=C(Nc1c(Cl)cccc1Cl)c1cn(-c2ccc(F)cc2F)c2nc(NCC(F)(F)F)ccc2c1=O", 6.76],
  ["O=C(NC1(C(F)(F)F)CCOCC1)c1cn(-c2ccc(F)cc2F)c2nc(N3C[C@@H](O)CC3=O)ccc2c1=O", 6.12],
  ["CC12CCC(NC(=O)c3cn(-c4ccc(F)cc4F)c4nc(NCC(F)(F)F)ccc4c3=O)(CC1)CC2", 7.21]
]}

Which pEC50 value belongs to CC[C@@H](NC(=O)c1cn(-c2ccc(F)cc2F)c2nc(N3CC(O)C(C)(C)C3)ccc2c1=O)C(F)(F)F (stereo partly shown) ?
7.03

And the next one, CC(C)CC(NC(=O)c1cn(-c2ccc(F)cc2F)c2nc(NCCO)ccc2c1=O)C(F)(F)F (stereo not shown) ?
7.14
